meta.source: PubChem BioAssay (NCI)

Test system: RPMI-8226 leukemia
Assay: NCI-60 one-dose screen, 48 h
Conditions: 10 µM unless noted
About 83,000 compounds went through this panel and 20% of them were active in at least one assay; those are over-represented in the sample as a whole. Calls of active or inactive are those of the source. The calls were made as follows: active = growth percent below 10; inactive = the rest.
Pick one and only one: active, inactive

# example entries with known answers
# molecule, class.assignment
data = [
    ("COc1cc(NC(=O)CCSc2nc3ccccc3c(=O)n2Cc2ccccc2)cc(OC)c1OC", "inactive"),
    ("O=C1Nc2ccccc2/C1=C/c1ccc[nH]1", "inactive"),
    ("CC(=O)Nc1nc2c(s1)CCc1c-2cn(S(=O)(=O)c2ccccc2)c1-c1ccccc1", "inactive"),
    ("COC(=O)c1cc2c(n1Cc1ccccc1)-c1oncc1CCC2", "inactive"),
    ("O=S1(=O)N(Cc2ccccc2)[C@@H](Cc2ccccc2)C2O[C@H]2[C@H](Cc2ccccc2)N1Cc1ccccc1 (stereo not given in full)", "inactive"),
]

Request: Identify the outcome logged in this assay for the molecule shown: CCC1=C[C@]2(C3CC(=O)N(c4ccccc4)C3=O)CC(C(C)(C)C)C[C@@H]2[C@@H]2C(=O)N(c3ccccc3)C(=O)[C@H]12 (stereo not given in full)
Result: inactive

Request: Record lookup: outcome of this test for `Cc1ccc2sc3c(NCCCNCCO)nc4ccccc4c3c(=O)c2c1` ?
Result: active
